tested on: PC-3 prostate; assay: NCI-60 one-dose screen, 48 h (100 = growth as untreated, 0 = no growth, -100 = all killed); settings: 10 µM unless noted
This is part of a sample that, as a whole, favours compounds with a hit. Of some 83,000 tested, about 20% had one in any assay.
# growth listing for each entry below

[
  {
    "COMPOUND": "CCCCCCOC(=O)CC1=C(C)/C(=C/c2[nH]c(-c3ccc[nH]3)cc2OC)N=C1C",
    "TARGET": "PC-3 prostate",
    "growth [%]": -23
  },
  {
    "COMPOUND": "CCN(CC)c1ccc(N2C(=O)/C(=C/c3cccs3)SC2=S)cc1",
    "TARGET": "PC-3 prostate",
    "growth [%]": 64.1
  },
  {
    "COMPOUND": "C=CC(C)(O)CC/C=C(\\CO)C(=O)OC1C(C)OC(O[C@](C)(C=C)CC/C=C(\\CO)C(=O)O[C@H]2C[C@@]3(C(=O)OC4OC(CO)C(O)C(O)C4OC4OC(C)C(OC5OC(CO)C(O)C5O)C(OC5OC(CO)C(O)C(O)C5O)C4O)C(CC2(C)C)C2=CCC4[C@@]5(C)CC[C@H](OC6OC(COC7OC(C)C(O)C(O)C7OC7OCC(O)C(O)C7O)C(O)C(O)C6NC(C)=O)C(C)(C)C5CC[C@@]4(C)[C@]2(C)C[C@H]3O)C(O)C1O (some centres not stated)",
    "TARGET": "PC-3 prostate",
    "growth [%]": -68.9
  },
  {
    "COMPOUND": "O=c1oc2c(cnc3ccccc32)cc1-c1cccs1",
    "TARGET": "PC-3 prostate",
    "growth [%]": 97.3
  },
  {
    "COMPOUND": "O=C(Nc1nc(C(=O)N2CCN(C(c3ccccc3)c3ccccc3)CC2)cs1)c1ccc(NC2CCCCC2)c([N+](=O)[O-])c1",
    "TARGET": "PC-3 prostate",
    "growth [%]": 76.1
  },
  {
    "COMPOUND": "CCNCc1ccc(O)c2ncccc12",
    "TARGET": "PC-3 prostate",
    "growth [%]": 23.4
  },
  {
    "COMPOUND": "O=C(N/N=C/c1ccc(Cl)cc1Cl)c1ccc2nc(-c3ccc(Cl)cc3)[nH]c2c1",
    "TARGET": "PC-3 prostate",
    "growth [%]": -24.9
  },
  {
    "COMPOUND": "O=C(Cn1cc(CN2C(=O)c3ccccc3S2(=O)=O)nn1)Nc1cccc(Cl)c1",
    "TARGET": "PC-3 prostate",
    "growth [%]": 104
  },
  {
    "COMPOUND": "CN(C)c1ccc(/C=C2/C=C(c3ccccc3)OC2=O)cc1",
    "TARGET": "PC-3 prostate",
    "growth [%]": 96.9
  },
  {
    "COMPOUND": "Clc1nccc2c(-c3csc(-c4c[nH]c5ccccc45)n3)c[nH]c12",
    "TARGET": "PC-3 prostate",
    "growth [%]": 40.1
  },
  {
    "COMPOUND": "CCOC(=O)/C=C/c1c(C)[nH]c(=O)[nH]c1=O",
    "TARGET": "PC-3 prostate",
    "growth [%]": 80.9
  },
  {
    "COMPOUND": "CN1CCN(c2ccc(NC(=O)c3cncnc3Nc3ccc4c(ccn4Cc4cccc(F)c4)c3)cc2)CC1",
    "TARGET": "PC-3 prostate",
    "growth [%]": 66.2
  },
  {
    "COMPOUND": "COC(=O)/C(CCC=C(C)C)=C1\\[C@@H](OC(C)=O)C[C@@]2(C)[C@H]1CC(=O)[C@H]1[C@@]3(C)CCC(N4CCCC4)[C@@H](C)[C@@H]3CC[C@@]12C (some centres not stated)",
    "TARGET": "PC-3 prostate",
    "growth [%]": 89.1
  },
  {
    "COMPOUND": "COc1cccc(/C=C2\\COc3ccc(O)cc3C2=O)c1",
    "TARGET": "PC-3 prostate",
    "growth [%]": 76.8
  },
  {
    "COMPOUND": "Cc1ccc(C(=O)c2ccc(CC(=O)N/N=C/c3ccc(O)cc3O)n2C)cc1",
    "TARGET": "PC-3 prostate",
    "growth [%]": 61.1
  },
  {
    "COMPOUND": "CN1CCN(CCCOC(=O)c2c3c(n4ccccc24)C(=O)c2ncccc2C3=O)CC1",
    "TARGET": "PC-3 prostate",
    "growth [%]": 17.6
  },
  {
    "COMPOUND": "COc1cc(-c2nc3occn3c2-c2ccnc(NCCCNS(=O)(=O)c3ccccc3)n2)ccc1F",
    "TARGET": "PC-3 prostate",
    "growth [%]": 22.2
  }
]

Where do these numbers come from? They come from PubChem BioAssay (NCI).
